B1: glmS ribozyme (parent)
chain: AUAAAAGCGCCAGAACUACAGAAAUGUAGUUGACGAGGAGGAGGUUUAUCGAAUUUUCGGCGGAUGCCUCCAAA

# Variants of: B1
# test.summary: kcat; higher = faster cleavage; RNA array
# condition.parameters: with glucosamine-6-phosphate
Variants at the floor of the assay were thinned out.
Measured kcat, listed per entry for reference.
Write down the numeric answer in s⁻¹ and omit the unit.

Look over these answered cases.
{"residues": "AUAAAAGCGCCAGAACUACAGAAAUGUAGUUGCCGAGGUGGAGGUUUAUCGAAUUUUCGGCGGAUGCCUCCAAA [A33C A39U]", "kcat / s⁻¹": 0.000401}
{"residues": "AUAAAAGCGCCAGAACUACAGAAAUGUAGUUGACGAGGAGGAGGUUUAUCGAAUUUUGGGCGGAUGGCUGCAAA [C58G C67G C70G]", "kcat / s⁻¹": "5.76e-05"}
{"residues": "AUAAAAGCGCCAGAACUACAGAAAUGUAGUCGACGAGGAGGAGGUUUAUCGAAUUUUCGGCGGAUGCCUCCAAA [U31C]", "kcat / s⁻¹": 0.00939}

What does the data say about its kcat? Entry: AUAAAAGCGCCAGAACUACAGAAAUGUAGUUGACGAGGAGGAGGUUGAUCGAAUUUUUGGCGGAUGCCUCCAAA [U47G C58U]
8.14e-05

Recorded kcat of AUAAAAGCGCCAGAACUACAGAAAUGUAGUUGACGAGGAGUAGGUUUAUCGAAUUUUCGGCGGAUGCCUCCAAA [G41U] , please.
0.00376

Looking for the measured kcat of AUAAAAGCGCCAGAACUACAGAAAUGUAGUUGACGAUGAGGAGGUUUAUCGAAUUUUCGGCGGAUGCCUUUAAA [G37U C70U C71U] , can you help?
1.13e-05

What measured kcat goes with AUAAAAGCGCCAGAACUACAGAAAUGUAGUUGACGAGGAGGAGGUUUAUCGAAUUUUUGGCGGAUGCCUCCAAA [C58U] ?
0.00011

Endpoint output: kcat of AUAAAAGCGCCAGAAAUACAGAAAUGUAGUCGACGAGGAGGAGGUUUAUCGAAUUUUCGGCGGAUGCCUCCAAA [C16A U31C] . Value?
0.000468

Which value of kcat has been reported for AUAAAAGCGCCAGAUCUACAGAAAUGUAGUUGACGAGGAGGAGGUUUAUCGAAUUUUCGGCGGAUACCUCCAAA [A15U G66A] in the records?
0.00705

# lookup: kcat of AUAAAAGCGCCAGAGCUACAGAAAUGUAUUUGACGAGGAGGAGGUUUAUGGAAUUUUCGGCGGAUGCCUCCAAA [A15G G29U C50G]
3.72e-05

Fill blank: measured kcat of the variant AUAAAAGCGCCAGAACUACAGAAAUGUAGUUGACGAGGAGGAGGUUUAUCGAAUCUUCGGCCGAUGCCUCCAAA [U55C G62C] is ____.
1.58e-05
